system: scalp of dandruff and non-dandruff subjects; assay: Metabolite expression profiling (LC/MS/MS, GC/MS/MS) of scalp D-Squame tape strip extracts: non-dandruff, dandruff baseline, dandruff after 3 weeks anti-dandruff shampoo; type: in vivo, human; conditions: metabolite level in scalp tape strips, standardized to soluble protein; dandruff subjects after 3 weeks 1% zinc pyrithione shampoo vs own baseline
Collected Fold Change Wk 3 ZPT vs Dandruff Baseline values appear next to each entry.
MEASURED_ATTRIBUTE: Fold Change Wk 3 ZPT vs Dandruff Baseline (fold)

* NCCO [Ethanolamine] | 1.08
* Cn1cc(C(N)=O)ccc1=O [N1-Methyl-2-pyridone-5-carboxamide] | 1.57
* CCCCCCCCCCCCCCCCCC(=O)NCCO [Stearoyl ethanolamide] | 2.94
